# tested_system: UniProt Q13304
# Sequence (Q13304 whole entry): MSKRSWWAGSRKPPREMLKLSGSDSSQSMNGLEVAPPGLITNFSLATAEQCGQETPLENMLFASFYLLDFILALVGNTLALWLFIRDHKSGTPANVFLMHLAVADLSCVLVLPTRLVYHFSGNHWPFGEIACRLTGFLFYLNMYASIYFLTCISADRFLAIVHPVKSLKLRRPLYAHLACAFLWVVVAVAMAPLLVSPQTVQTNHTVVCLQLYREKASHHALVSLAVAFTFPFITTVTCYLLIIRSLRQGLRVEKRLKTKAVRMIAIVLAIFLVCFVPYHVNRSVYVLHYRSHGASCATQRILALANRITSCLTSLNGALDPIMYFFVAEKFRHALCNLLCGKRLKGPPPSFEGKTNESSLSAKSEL
# experiment: Calcium mobilization assay
# Assay type: cell-based
# assay_context: Calcium assay IC50(μM) Avg ± SEM, Table 3; reported only when efficacy ≥75%
Entries and their measured IC50 follow.
Note: state the figure and append the unit.

COc1ccc(C(=O)NC2CCCc3c2[nH]c2c(C)cc(C)cc32)cc1OC (stereo not shown) | 12.2 µM
COc1ccc(C(=O)NC2CCCc3c2[nH]c2c(Br)cccc32)cc1OC (stereo not shown) | 4.29 µM
COc1ccc(C(=O)NC2CCCc3c2[nH]c2ccccc32)cc1OC (stereo not shown) | 9.44 µM

## Task I'd like to know its IC50. The molecule in question is COc1ccc(C(=O)NC2CCCc3c2[nH]c2c(C)ccc(C)c32)cc1OC (stereo not shown)
## Result 11.8 µM

The reported numbers originate from paper PMC12459614.
